The reported numbers originate from the supplement of paper PMC10567573.

B1: LARP4 (parent)
chain: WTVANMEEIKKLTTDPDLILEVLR

variants of: B1; assay: protein stability index of a GFP-peptide fusion (GPS, HEK-293T) (PSI 1-6); higher = more stable; details: c terminus: a fixed tail appended;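 further: lentivirally expressed fusions sorted by FACS into six bins by GFP to DsRed ratio, PSI derived from sequencing read proportions per bin multiplied by bin number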
This section presents variants with their documented protein stability index values.
property label: protein stability index

[[record]]
seq = "WTVANMELIKKLTTDPDLILEVLR [E8L]"
value_observed = 3.14

[[record]]
seq = "WTRANMEEIKKLTTDPDLILEVLR [V3R]"
value_observed = 1.24

[[record]]
seq = "WTVANMEEIKKLTTDPDLILEVLV [R24V]"
value_observed = 1.83

[[record]]
seq = "WTVANMEEIKKLTQDPDLILEVLR [T14Q]"
value_observed = 2.59

[[record]]
seq = "WTVANMEEIKKLRTDPDLILEVLR [T13R]"
value_observed = 1.82

[[record]]
seq = "WTVANMEEIKKLTTDPDLCLEVLR [I19C]"
value_observed = 1.96

[[record]]
seq = "YTVANMEEIKKLTTDPDLILEVLR [W1Y]"
value_observed = 2.01

[[record]]
seq = "WVVANMEEIKKLTTDPDLILEVLR [T2V]"
value_observed = 1.7

[[record]]
seq = "WTVANMEEIKKNTTDPDLILEVLR [L12N]"
value_observed = 3.08

[[record]]
seq = "WTVANMEECKKLTTDPDLILEVLR [I9C]"
value_observed = 2.27

[[record]]
seq = "WTVANSEEIKKLTTDPDLILEVLR [M6S]"
value_observed = 2.57

[[record]]
seq = "WTVANMEEGKKLTTDPDLILEVLR [I9G]"
value_observed = 2.43

[[record]]
seq = "WTVANMEEIKKLTTHPDLILEVLR [D15H]"
value_observed = 2.21

[[record]]
seq = "WTVANMEEIKKLTTVPDLILEVLR [D15V]"
value_observed = 1.59

[[record]]
seq = "WTVANMEEIKKLTTDPDLILEVMR [L23M]"
value_observed = 2.12

[[record]]
seq = "WTVANMEEIKSLTTDPDLILEVLR [K11S]"
value_observed = 2.8

[[record]]
seq = "WTVANMEEIKKLTTDPDLILEVLY [R24Y]"
value_observed = 1.57

[[record]]
seq = "WTVANMEEIKMLTTDPDLILEVLR [K11M]"
value_observed = 1.81

[[record]]
seq = "WTVANMEEIKKLTTDPDLILEVLE [R24E]"
value_observed = 2.53

[[record]]
seq = "WTVANMEENKKLTTDPDLILEVLR [I9N]"
value_observed = 1.93

[[record]]
seq = "WTVANMEEIKKLTTDPDLILFVLR [E21F]"
value_observed = 1.63

[[record]]
seq = "WTVANMEEIKKLTVDPDLILEVLR [T14V]"
value_observed = 1.05

[[record]]
seq = "WTVANMEEIKKLTTDPDLILEVFR [L23F]"
value_observed = 2.46

[[record]]
seq = "WTQANMEEIKKLTTDPDLILEVLR [V3Q]"
value_observed = 2.62

[[record]]
seq = "WTVANMEEIKKLTTDDDLILEVLR [P16D]"
value_observed = 2.38

[[record]]
seq = "WTVANMEEIKKVTTDPDLILEVLR [L12V]"
value_observed = 2.9

[[record]]
seq = "WTVANMEEIKKLTTDPDLILWVLR [E21W]"
value_observed = 2.1

[[record]]
seq = "WTVARMEEIKKLTTDPDLILEVLR [N5R]"
value_observed = 1.16

[[record]]
seq = "WHVANMEEIKKLTTDPDLILEVLR [T2H]"
value_observed = 2.67

[[record]]
seq = "WTVENMEEIKKLTTDPDLILEVLR [A4E]"
value_observed = 2.3

[[record]]
seq = "WTVANMEEIKKLTTLPDLILEVLR [D15L]"
value_observed = 2.1

[[record]]
seq = "WTVANMEEIKKLYTDPDLILEVLR [T13Y]"
value_observed = 1.86

[[record]]
seq = "WTVANMEEIDKLTTDPDLILEVLR [K10D]"
value_observed = 2.49

[[record]]
seq = "WTVANMEEIKKLTTDPDLINEVLR [L20N]"
value_observed = 3.24

[[record]]
seq = "WTVANMYEIKKLTTDPDLILEVLR [E7Y]"
value_observed = 2.18

[[record]]
seq = "WTVHNMEEIKKLTTDPDLILEVLR [A4H]"
value_observed = 1.93

[[record]]
seq = "WTVANMEEIKHLTTDPDLILEVLR [K11H]"
value_observed = 3.42

[[record]]
seq = "WTVANMEEIKDLTTDPDLILEVLR [K11D]"
value_observed = 3.96

[[record]]
seq = "WTVANMEEIKRLTTDPDLILEVLR [K11R]"
value_observed = 2.52

